- procedure.summary: acute toxicity on mice
- Assay type: in vivo
- protocol.conditions: mouse, in vivo
quantity.kind: LD50 (mg/kg)
Write the answer as a number in mg/kg, unit excluded.

Prompt line: Look up LD50: CN1C(=O)N(C)C2C1N(C)C(=O)N2C (stereo not shown)
Response line: 3800
